The values you see were collected from patent US20240366612A1.

Please go through the items and note down their pIC50.
# Test system: Target C CJ mRNA
# Method notes: Gene panel canonical junction qPCR assay, Target C
# Format: cell-based
# Recorded conditions: Homo sapiens, larger gene panel, read-out: Target C IC50 (decrease in CJ mRNA levels)
pIC50: −log10 of the molar value. Where a name gives a salt, the structure may show the parent alone.

Entry Cn1cc2cc(-c3nc4ncn(C5CCNCC5)c(=O)c4s3)c(O)cc2n1 [Compound 253, hydrochloride] , pIC50 reported as 5.00 to 6.00

Entry Cc1cc(-c2cc3ncn(C4CCNCC4)c(=O)c3s2)cc2cn(C)nc12 , pIC50 reported as 6.00 to 7.00

Entry Cc1cc(-c2cn3c(=O)cc(N4CCN(C)CC4)nc3s2)cc2cn(C)nc12 , pIC50 reported as < 5.00

Entry Cc1cn2cc(-c3cc4ncn([C@H]5CCNC[C@H]5F)c(=O)c4s3)cc(F)c2n1 (relative stereo) , pIC50 reported as 5.00 to 6.00

Entry Cc1cc(-c2cc(=O)n3nc(N4CCN(C)CC4)sc3n2)cc2cn(C)nc12 , pIC50 reported as < 5.00

Entry Cc1cn2cc(-c3cn4c(=O)cc(N5CCNCC5)nc4s3)cc(F)c2n1 , pIC50 reported as < 5.00

Entry Cc1cc(-c2nc3ncn(C4CCN(C)CC4)c(=O)c3s2)cc2cn(C)nc12 , pIC50 reported as 5.00 to 6.00

Entry Cc1cn2cc(-c3cc4ncn(C5CCN(C)CC5)c(=O)c4s3)cc(F)c2n1 , pIC50 reported as 6.00 to 7.00

Entry Cc1cn2cc(-c3cc4ncn(C5CCNCC5)c(=O)c4s3)cc(C)c2n1 , pIC50 reported as 5.00 to 6.00

Entry Cc1cn2cc(-c3cc4ccn(C5CCN(C)CC5)c(=O)c4s3)cc(F)c2n1 , pIC50 reported as 5.00 to 6.00

Entry Cc1cn2cc(N3CCc4cc(C5CCNCC5)sc4C3=O)cc(F)c2n1 , pIC50 reported as < 5.00

Entry Cc1cn2cc(-c3nn4c(=O)cc(N5CCNC6(CC6)C5)nc4s3)cc(F)c2n1 , pIC50 reported as 5.00 to 6.00

Entry Cc1cn2cc(-c3cc4ncn(C5=CCNCC5)c(=O)c4s3)cc(F)c2n1 , pIC50 reported as 6.00 to 7.00

Entry Cc1cn2cc(-c3cc4ncn([C@H]5CCN[C@@H](C)C5)c(=O)c4s3)cc(F)c2n1 (relative stereo) [Compound 278, hydrochloride] , pIC50 reported as 6.00 to 7.00

Entry Cc1cn2cc(-n3cnc4nc(N5CCN(C)CC5)sc4c3=O)cc(C(F)(F)F)c2n1 , pIC50 reported as < 5.00

Entry Cc1cn2cc(-c3nc4cnn(C5CCNCC5)c(=O)c4s3)nc(C)c2n1 , pIC50 reported as < 5.00

Entry Cc1cn2cc(-c3nc4sc(C5CCN(C)CC5)cc4c(=O)[nH]3)cc(F)c2n1 , pIC50 reported as < 5.00

Entry Cc1cn2cc(-n3cnc4nc(N5CCN(C)CC5)sc4c3=O)cc(F)c2n1 , pIC50 reported as 5.00 to 6.00

Entry Cc1cc(-c2nn3c(=O)cc(N4CCNCC4)nc3s2)cc2cn(C)nc12 , pIC50 reported as 5.00 to 6.00

Entry Cc1cc(-c2nn3c(=O)cc(N4CCN(C)CC4)nc3s2)cc2cn(C)nc12 , pIC50 reported as 5.00 to 6.00

Entry Cc1cc(-c2cc(=O)n3cc(N4CCN(C)CC4)sc3n2)cc2cn(C)nc12 , pIC50 reported as < 5.00

Entry Cc1cn2cc(-c3cc4ncn(C5CCCNCC5)c(=O)c4s3)cc(F)c2n1 (stereo not drawn) , pIC50 reported as 6.00 to 7.00

Entry Cc1cn2nc(-c3cc(=O)n4cc(N(C)C5CC(C)(C)NC(C)(C)C5)sc4n3)cc(C)c2n1 , pIC50 reported as 5.00 to 6.00

Entry Cc1cn2cc(-c3nc4ncn(C5CCNCC5)c(=O)c4s3)cc(F)c2n1 , pIC50 reported as 6.00 to 7.00

Entry Cc1nc(-c2nc3cnn(C4CCNCC4)c(=O)c3s2)cc2cn(C)nc12 , pIC50 reported as < 5.00

Entry Cn1cc2cc(-c3cc4ncn(C5CCNCC5)c(=O)c4s3)cc(C#N)c2n1 , pIC50 reported as 5.00 to 6.00

Entry Cc1cn2cc(-c3cc4ncn(C5CCNCC5)c(=O)c4s3)ncc2n1 , pIC50 reported as 5.00 to 6.00

Entry Cc1cc(-c2cc3ccn(C4CCNCC4)c(=O)c3s2)cc2cn(C)nc12 , pIC50 reported as 5.00 to 6.00

Entry COc1cc(-c2cc3ncn(C4CCNCC4)c(=O)c3s2)ccn1 , pIC50 reported as 5.00 to 6.00

Entry Cc1cn2cc(-c3nn4c(=O)cc(N5CCN(C)CC5)nc4s3)cc(F)c2n1 , pIC50 reported as 5.00 to 6.00

Entry Cc1cn2cc(-c3cc4ncn([C@H]5CNCC[C@@H]5O)c(=O)c4s3)cc(F)c2n1 (relative stereo) , pIC50 reported as 5.00 to 6.00

Entry Cc1nc(-c2cc3ncn(C4CCNCC4)c(=O)c3s2)cc2cn(C)nc12 , pIC50 reported as 5.00 to 6.00

Entry Cc1cn2nc(-c3cn4c(=O)cc(N5CCNC6(CC6)C5)nc4s3)cc(C)c2n1 , pIC50 reported as 5.00 to 6.00
